- measured_on: PSMA (PSMA-expressing LNCaP cells) (Homo sapiens)
- Sequence (Q04609 whole entry): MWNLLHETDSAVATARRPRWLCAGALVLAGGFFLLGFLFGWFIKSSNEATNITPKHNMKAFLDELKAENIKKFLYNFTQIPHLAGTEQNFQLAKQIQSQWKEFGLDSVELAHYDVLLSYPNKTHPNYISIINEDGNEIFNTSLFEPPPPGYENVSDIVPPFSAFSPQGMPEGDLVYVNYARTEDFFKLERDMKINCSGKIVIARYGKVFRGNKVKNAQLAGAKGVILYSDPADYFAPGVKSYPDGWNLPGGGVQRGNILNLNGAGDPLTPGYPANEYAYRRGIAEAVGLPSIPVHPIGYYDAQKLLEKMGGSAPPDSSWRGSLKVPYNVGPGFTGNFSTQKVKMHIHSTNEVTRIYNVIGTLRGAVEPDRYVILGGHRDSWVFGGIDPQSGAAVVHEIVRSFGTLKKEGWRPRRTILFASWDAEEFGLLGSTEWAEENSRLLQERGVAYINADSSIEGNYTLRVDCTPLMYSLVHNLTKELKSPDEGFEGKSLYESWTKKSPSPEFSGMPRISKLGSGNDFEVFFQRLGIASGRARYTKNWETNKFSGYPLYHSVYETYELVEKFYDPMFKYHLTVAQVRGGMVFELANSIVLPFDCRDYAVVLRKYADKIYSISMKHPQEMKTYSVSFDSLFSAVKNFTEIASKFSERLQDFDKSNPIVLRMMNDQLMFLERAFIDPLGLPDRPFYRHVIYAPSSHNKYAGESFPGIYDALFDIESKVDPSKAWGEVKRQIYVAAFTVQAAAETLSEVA
- procedure_details: LNCaP cell binding study
- experimental_setup: LNCaP cells in culture
Numbered stars: 1 amine (or outer) side, 2 acyl side, 3 side chain; on linkers, the order of the positions; unused ones are H or OH. Square brackets hold non-standard residues; d marks the D form. Side chains are listed from the residue outwards. Peptide text beside a SMILES is read from it. γGlu = O=C(O)[C@H](CCC(=O)[*:2])N[*:1]; PEG6 = NCCOCCOCCOCCOCCOCCOCCC(=O)O; Dap = NC[C@H](N)C(=O)O; CO = O=C([*:1])[*:2]
measured_endpoint: affinity for PSMA / LNCaP cells (in words)

# molecule, measured
records = [
    ("N[C@@H](CNC(=O)[C@H](Cc1ccccc1)NC(=O)CCOCCOCCOCCOCCOCCOCCNC(=O)CC[C@H](NC(=O)N[C@@H](CCC(=O)O)C(=O)O)C(=O)O)C(=O)N[C@@H](CC(=O)O)C(=O)N[C@@H](CS)C(=O)O [compound 8] (H-[Dap]([Phe-PEG6-γGlu-CO-Glu])-Asp-Cys-OH)", "weak affinity"),
    ("N[C@@H](CNC(=O)CC[C@H](NC(=O)N[C@@H](CCC(=O)O)C(=O)O)C(=O)O)C(=O)N[C@@H](CC(=O)O)C(=O)N[C@@H](CS)C(=O)O [compound 3] (H-[Dap]([γGlu-CO-Glu])-Asp-Cys-OH)", "weak affinity"),
]

Data origin: paper PMC9190123
